Readings of thermal stability score for the listed sequences
- Tested on: HeLa Kyoto
- PROTOCOL DETAILS: thermal stability score vs G1/S (z-score of summed log2 fold changes over temperatures); higher = more thermally stable than in G1/S
- REPORTED CONDITIONS: cell cycle stage: early G1 (4.5 h after nocodazole release)
MEASUREMENT LABEL: thermal stability score

- MAVTGWLESLRTAQKTALLQDGRRKVHYLFPDGKEMAEEYDEKTSELLVRKWRVKSALGAMGQWQLEVGDPAPLGAGNLGPELIKESNANPIFMRKDTKMSFQWRIRNLPYPKDVYSVSVDQKERCIIVRTTNKKYYKKFSIPDLDRHQLPLDDALLSFAHANCTLIISYQKPKEVVVAESELQKELKKVKTAHSNDGDCKTQ [DPCD]: 0.4
- MPVVRKIFRRRRGDSESEEDEQDSEEVRLKLEETREVQNLRKRPNGVSAVALLVGEKVQEETTLVDDPFQMKTGGMVDMKKLKERGKDKISEEEDLHLGTSFSAETNRRDEDADMMKYIETELKKRKGIVEHEEQKVKPKNAEDCLYELPENIRVSSAKKTEEMLSNQMLSGIPEVDLGIDAKIKNIISTEDAKARLLAEQQNKKKDSETSFVPTNMAVNYVQHNRFYHEELNAPIRRNKEEPKARPLRVGDTEKPEPERSPPNRKRPANEKATDDYHYEKFKKMNRRY [C9ORF78]: -2.13

---

- Tested on: HeLa Kyoto
- PROTOCOL DETAILS: melting temperature (median over replicates), in situ; higher = more thermally stable
- REPORTED CONDITIONS: cell cycle stage: mitosis
Parameter melting temperature: see the listing below.
MEASUREMENT LABEL: melting temperature (°C)

- MGIQTSPVLLASLGVGLVTLLGLAVGSYLVRRSRRPQVTLLDPNEKYLLRLLDKTTVSHNTKRFRFALPTAHHTLGLPVGKHIYLSTRIDGSLVIRPYTPVTSDEDQGYVDLVIKVYLKGVHPKFPEGGKMSQYLDSLKVGDVVEFRGPSGLLTYTGKGHFNIQPNKKSPPEPRVAKKLGMIAGGTGITPMLQLIRAILKVPEDPTQCFLLFANQTEKDIILREDLEELQARYPNRFKLWFTLDHPPKDWAYSKGFVTADMIREHLPAPGDDVLVLLCGPPPMVQLACHPNLDKLGYSQKMRFTY [CYB5R1]: 55.3
- MEGGLGRAVCLLTGASRGFGRTLAPLLASLLSPGSVLVLSARNDEALRQLEAELGAERSGLRVVRVPADLGAEAGLQQLLGALRELPRPKGLQRLLLINNAGSLGDVSKGFVDLSDSTQVNNYWALNLTSMLCLTSSVLKAFPDSPGLNRTVVNISSLCALQPFKGWALYCAGKAARDMLFQVLALEEPNVRVLNYAPGPLDTDMQQLARETSVDPDMRKGLQELKAKGKLVDCKVSAQKLLSLLEKDEFKSGAHVDFYDK [SPR]: 52.3
- MSCAGAAAAPRLWRLRPGARRSLSAYGRRTSVRFRSSGMTLDNISRAAVDRIIRVDHAGEYGANRIYAGQMAVLGRTSVGPVIQKMWDQEKDHLKKFNELMVTFRVRPTVLMPLWNVLGFALGAGTALLGKEGAMACTVAVEESIAHHYNNQIRTLMEEDPEKYEELLQLIKKFRDEELEHHDIGLDHDAELAPAYAVLKSIIQAGCRVAIYLSERL [COQ7]: 53.4
- MAATSLMSALAARLLQPAHSCSLRLRPFHLAAVRNEAVVISGRKLAQQIKQEVRQEVEEWVASGNKRPHLSVILVGENPASHSYVLNKTRAAAVVGINSETIMKPASISEEELLNLINKLNNDDNVDGLLVQLPLPEHIDERRICNAVSPDKDVDGFHVINVGRMCLDQYSMLPATPWGVWEIIKRTGIPTLGKNVVVAGRSKNVGMPIAMLLHTDGAHERPGGDATVTISHRYTPKEQLKKHTILADIVISAAGIPNLITADMIKEGAAVIDVGINRVHDPVTAKPKLVGDVDFEGVRQKAGYITPVPGGVGPMTVAMLMKNTIIAAKKVLRLEEREVLKSKELGVATN [MTHFD2]: 53.3
- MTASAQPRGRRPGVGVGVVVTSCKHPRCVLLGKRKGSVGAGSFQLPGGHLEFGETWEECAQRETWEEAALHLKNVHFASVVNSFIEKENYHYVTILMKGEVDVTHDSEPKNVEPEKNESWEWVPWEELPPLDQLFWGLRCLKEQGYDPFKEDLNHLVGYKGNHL [NUDT15]: 52.3
- MAPQNLSTFCLLLLYLIGAVIAGRDFYKILGVPRSASIKDIKKAYRKLALQLHPDRNPDDPQAQEKFQDLGAAYEVLSDSEKRKQYDTYGEEGLKDGHQSSHGDIFSHFFGDFGFMFGGTPRQQDRNIPRGSDIIVDLEVTLEEVYAGNFVEVVRNKPVARQAPGKRKCNCRQEMRTTQLGPGRFQMTQEVVCDECPNVKLVNEERTLEVEIEPGVRDGMEYPFIGEGEPHVDGEPGDLRFRIKVVKHPIFERRGDDLYTNVTISLVESLVGFEMDITHLDGHKVHISRDKITRPGAKLWKKGEGLPNFDNNNIKGSLIITFDVDFPKEQLTEEAREGIKQLLKQGSVQKVYNGLQGY [DNAJB11]: 55
- MASPGCLWLLAVALLPWTCASRALQHLDPPAPLPLVIWHGMGDSCCNPLSMGAIKKMVEKKIPGIYVLSLEIGKTLMEDVENSFFLNVNSQVTTVCQALAKDPKLQQGYNAMGFSQGGQFLRAVAQRCPSPPMINLISVGGQHQGVFGLPRCPGESSHICDFIRKTLNAGAYSKVVQERLVQAEYWHDPIKEDVYRNHSIFLADINQERGINESYKKNLMALKKFVMVKFLNDSIVDPVDSEWFGFYRSGQAKETIPLQETSLYTQDRLGLKEMDNAGQLVFLATEGDHLQLSEEWFYAHIIPFLG [PPT1]: 55.2
- MSELEQLRQEAEQLRNQIQDARKACNDATLVQITSNMDSVGRIQMRTRRTLRGHLAKIYAMHWGYDSRLLVSASQDGKLIIWDSYTTNKMHAIPLRSSWVMTCAYAPSGNYVACGGLDNICSIYNLKTREGNVRVSRELPGHTGYLSCCRFLDDSQIVTSSGDTTCALWDIETAQQTTTFTGHSGDVMSLSLSPDMRTFVSGACDASSKLWDIRDGMCRQSFTGHVSDINAVSFFPNGYAFATGSDDATCRLFDLRADQELLLYSHDNIICGITSVAFSKSGRLLLAGYDDFNCNVWDTLKGDRAGVLAGHDNRVSCLGVTDDGMAVATGSWDSFLRIWN [GNB4]: 56.7
- MAGLGHPAAFGRATHAVVRALPESLGQHALRSAKGEEVDVARAERQHQLYVGVLGSKLGLQVVELPADESLPDCVFVEDVAVVCEETALITRPGAPSRRKEVDMMKEALEKLQLNIVEMKDENATLDGGDVLFTGREFFVGLSKRTNQRGAEILADTFKDYAVSTVPVADGLHLKSFCSMAGPNLIAIGSSESAQKALKIMQQMSDHRYDKLTVPDDIAANCIYLNIPNKGHVLLHRTPEEYPESAKVYEKLKDHMLIPVSMSELEKVDGLLTCCSVLINKKVDS [DDAH1]: 56.1
- MAATASAGAGGIDGKPRTSPKSVKFLFGGLAGMGATVFVQPLDLVKNRMQLSGEGAKTREYKTSFHALTSILKAEGLRGIYTGLSAGLLRQATYTTTRLGIYTVLFERLTGADGTPPGFLLKAVIGMTAGATGAFVGTPAEVALIRMTADGRLPADQRRGYKNVFNALIRITREEGVLTLWRGCIPTMARAVVVNAAQLASYSQSKQFLLDSGYFSDNILCHFCASMISGLVTTAASMPVDIAKTRIQNMRMIDGKPEYKNGLDVLFKVVRYEGFFSLWKGFTPYYARLGPHTVLTFIFLEQMNKAYKRLFLSG [SLC25A11]: 59.8
